- MEASURED TARGET: Focal adhesion kinase 1 (Homo sapiens)
- PROTOCOL: Inhibition of FAK Tyr397 phosphorylation in human FG cells after 60 mins by Western blot analysis
MEASURED ENDPOINT: pIC50
Units for pIC50: none; it is -log10 of a concentration expressed in mol/L.

Incoming: For Focal adhesion kinase 1 (Homo sapiens), give pIC50 of the listed compound: CS(=O)(=O)c1cccc(CNc2nc(Nc3ccc4c(c3)CCC(=O)N4)ncc2C(F)(F)F)c1
Outgoing: 7.52

----------
- MEASURED TARGET: Cyclin-dependent kinase 7 (Homo sapiens, UniProt P50613)
- Sequence (P50613 whole entry): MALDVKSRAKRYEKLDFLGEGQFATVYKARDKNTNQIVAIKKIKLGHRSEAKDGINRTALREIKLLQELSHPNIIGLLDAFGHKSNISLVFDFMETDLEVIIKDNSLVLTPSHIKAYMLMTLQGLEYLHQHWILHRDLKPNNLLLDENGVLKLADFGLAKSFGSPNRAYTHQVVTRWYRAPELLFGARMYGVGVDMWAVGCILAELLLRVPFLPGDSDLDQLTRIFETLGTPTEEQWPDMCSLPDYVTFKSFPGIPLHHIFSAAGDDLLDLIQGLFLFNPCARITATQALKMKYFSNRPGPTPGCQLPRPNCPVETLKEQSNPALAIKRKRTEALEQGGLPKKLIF
- PROTOCOL: Inhibition of human CDK7/cyclinH/MAT1
MEASURED ENDPOINT: pIC50
Here pIC50 is given on a logarithmic scale as minus log10 of the concentration in mol/L.

Incoming: Item CS(=O)(=O)c1cccc(CNc2nc(Nc3ccc4c(c3)CCC(=O)N4)ncc2C(F)(F)F)c1 : provide pIC50
Outgoing: 6.71

----------
- MEASURED TARGET: Cyclin-dependent kinase 1/cyclin B1 (Homo sapiens, UniProt P06493)
- Sequence (P06493 whole entry): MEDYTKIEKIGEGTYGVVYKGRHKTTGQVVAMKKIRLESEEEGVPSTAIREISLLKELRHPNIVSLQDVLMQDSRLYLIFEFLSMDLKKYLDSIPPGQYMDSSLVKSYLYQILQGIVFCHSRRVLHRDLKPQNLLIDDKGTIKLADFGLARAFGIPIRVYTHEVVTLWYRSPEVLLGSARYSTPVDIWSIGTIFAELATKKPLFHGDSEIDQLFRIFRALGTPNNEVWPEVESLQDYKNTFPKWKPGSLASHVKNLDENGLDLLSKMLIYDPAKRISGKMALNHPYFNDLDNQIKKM
- Sequence (P14635 whole entry, further chain): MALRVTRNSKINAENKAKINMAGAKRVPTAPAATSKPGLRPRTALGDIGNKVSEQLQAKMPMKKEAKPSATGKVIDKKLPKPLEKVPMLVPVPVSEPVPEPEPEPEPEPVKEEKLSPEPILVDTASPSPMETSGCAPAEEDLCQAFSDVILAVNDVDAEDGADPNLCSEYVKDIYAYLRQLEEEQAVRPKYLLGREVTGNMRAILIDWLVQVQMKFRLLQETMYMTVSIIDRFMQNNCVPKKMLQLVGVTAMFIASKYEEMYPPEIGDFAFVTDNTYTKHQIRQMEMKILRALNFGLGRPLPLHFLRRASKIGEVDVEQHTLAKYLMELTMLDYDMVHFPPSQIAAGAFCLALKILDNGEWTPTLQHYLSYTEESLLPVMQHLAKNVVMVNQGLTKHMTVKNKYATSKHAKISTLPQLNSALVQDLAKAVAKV
- PROTOCOL: Inhibition of human CDK1/cyclinB
MEASURED ENDPOINT: IC50 (nM)
Give a bare numeral; the unit nM is implied.

Incoming: Quote IC50 with test system Cyclin-dependent kinase 1/cyclin B1 (Homo sapiens, UniProt P06493) for CS(=O)(=O)c1cccc(CNc2nc(Nc3ccc4c(c3)CCC(=O)N4)ncc2C(F)(F)F)c1
Outgoing: 486

----------
- MEASURED TARGET: Focal adhesion kinase 1 (Homo sapiens, UniProt Q05397)
- Sequence (Q05397 whole entry): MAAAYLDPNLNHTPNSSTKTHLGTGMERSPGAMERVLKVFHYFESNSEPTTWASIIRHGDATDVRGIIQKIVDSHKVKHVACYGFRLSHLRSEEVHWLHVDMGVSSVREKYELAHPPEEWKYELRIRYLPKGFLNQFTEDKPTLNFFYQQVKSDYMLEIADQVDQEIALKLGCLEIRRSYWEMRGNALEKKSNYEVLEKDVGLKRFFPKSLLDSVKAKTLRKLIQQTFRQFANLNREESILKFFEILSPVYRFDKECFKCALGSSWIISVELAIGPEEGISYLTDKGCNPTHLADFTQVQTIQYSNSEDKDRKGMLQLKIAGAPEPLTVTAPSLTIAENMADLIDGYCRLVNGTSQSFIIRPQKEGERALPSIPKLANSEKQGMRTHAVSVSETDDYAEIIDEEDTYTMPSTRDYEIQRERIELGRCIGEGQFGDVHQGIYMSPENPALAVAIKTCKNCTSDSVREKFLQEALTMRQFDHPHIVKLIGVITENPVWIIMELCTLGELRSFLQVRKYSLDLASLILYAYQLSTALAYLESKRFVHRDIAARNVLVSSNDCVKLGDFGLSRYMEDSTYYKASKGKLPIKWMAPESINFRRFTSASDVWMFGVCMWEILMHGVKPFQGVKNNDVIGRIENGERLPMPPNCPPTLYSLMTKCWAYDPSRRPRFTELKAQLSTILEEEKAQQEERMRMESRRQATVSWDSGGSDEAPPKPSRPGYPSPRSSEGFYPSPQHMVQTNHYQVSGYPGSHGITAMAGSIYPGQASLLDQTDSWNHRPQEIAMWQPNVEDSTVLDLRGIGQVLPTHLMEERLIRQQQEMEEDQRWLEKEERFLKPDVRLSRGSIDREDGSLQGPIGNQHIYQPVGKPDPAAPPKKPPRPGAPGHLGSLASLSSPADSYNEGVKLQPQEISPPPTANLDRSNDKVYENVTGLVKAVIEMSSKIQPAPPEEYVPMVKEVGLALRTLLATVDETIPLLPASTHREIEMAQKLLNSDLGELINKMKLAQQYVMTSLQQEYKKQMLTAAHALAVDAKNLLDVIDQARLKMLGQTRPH
- PROTOCOL: Inhibition of FAK Tyr397 phosphorylation in human PC3 cells after 60 mins by Western blot analysis
MEASURED ENDPOINT: IC50 (µM)
Give your result in µM as a bare value.

Incoming: Indicate the recorded IC50 value for this compound: CS(=O)(=O)c1cccc(CNc2nc(Nc3ccc4c(c3)CCC(=O)N4)ncc2C(F)(F)F)c1
Outgoing: 0.1

----------
- MEASURED TARGET: Focal adhesion kinase 1 (Homo sapiens, UniProt Q05397)
- PROTOCOL: Inhibition of FAK Tyr397 phosphorylation in human L3.6pl cells after 60 mins by Western blot analysis
MEASURED ENDPOINT: IC50 (nM)
Value expressed in nM; do not type the unit.

Incoming: Answer with reported IC50 of CS(=O)(=O)c1cccc(CNc2nc(Nc3ccc4c(c3)CCC(=O)N4)ncc2C(F)(F)F)c1
Outgoing: 300

----------
- MEASURED TARGET: UniProt Q05397
- PROTOCOL: Inhibition of FAK Tyr397 phosphorylation in human A431 cells by ELISA
MEASURED ENDPOINT: pIC50
Note on pIC50: it is the negative log10 of concentration, concentration in mol/L.

Incoming: Under UniProt Q05397: report pIC50 of CS(=O)(=O)c1cccc(CNc2nc(Nc3ccc4c(c3)CCC(=O)N4)ncc2C(F)(F)F)c1 .
Outgoing: 7.96
